- System tested: Glutamate receptor 1 (Homo sapiens, UniProt P42261)
- Sequence (P42261 whole entry): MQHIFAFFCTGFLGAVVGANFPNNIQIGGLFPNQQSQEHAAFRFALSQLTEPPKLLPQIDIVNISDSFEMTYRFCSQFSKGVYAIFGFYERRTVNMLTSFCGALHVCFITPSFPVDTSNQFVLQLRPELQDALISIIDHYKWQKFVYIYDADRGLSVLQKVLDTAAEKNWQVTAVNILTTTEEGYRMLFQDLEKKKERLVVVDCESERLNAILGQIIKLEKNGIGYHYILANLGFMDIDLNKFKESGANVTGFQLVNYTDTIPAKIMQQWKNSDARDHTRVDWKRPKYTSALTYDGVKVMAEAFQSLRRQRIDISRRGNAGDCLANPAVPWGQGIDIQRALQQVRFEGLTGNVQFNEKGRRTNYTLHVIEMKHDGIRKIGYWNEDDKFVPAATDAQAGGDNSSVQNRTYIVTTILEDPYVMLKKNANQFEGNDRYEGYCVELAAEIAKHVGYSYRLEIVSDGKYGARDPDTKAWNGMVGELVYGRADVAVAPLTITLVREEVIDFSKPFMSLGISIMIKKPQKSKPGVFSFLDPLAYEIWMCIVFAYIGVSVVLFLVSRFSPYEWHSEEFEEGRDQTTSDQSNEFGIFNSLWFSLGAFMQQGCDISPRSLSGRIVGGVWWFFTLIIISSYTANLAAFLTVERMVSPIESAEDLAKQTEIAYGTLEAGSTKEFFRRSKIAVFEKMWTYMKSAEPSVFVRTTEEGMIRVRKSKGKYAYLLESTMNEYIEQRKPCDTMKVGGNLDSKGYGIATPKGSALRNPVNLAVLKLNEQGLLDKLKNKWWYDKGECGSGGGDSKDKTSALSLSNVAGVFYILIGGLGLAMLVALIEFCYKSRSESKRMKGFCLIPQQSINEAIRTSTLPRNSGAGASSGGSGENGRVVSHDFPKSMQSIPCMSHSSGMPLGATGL
- Measurement description: Inhibition of the (-80 mV) current elicited by 100 uM glutamate by simultaneous co-application in xenopus oocytes injected with GluR1 flop RNA.
- Type: cell-based, Oocyte
pKi: −log10 of the molar value.
Lab note: compare pKi against 7. Equal or greater, write YES. Smaller, write NO.

{"Compound": "CCCC(=O)NC(Cc1ccc(O)cc1)C(=O)NCCCCNCCCCCCCN (centres undefined)", "Group label": "YES"}
{"Compound": "CCCC(=O)NC(Cc1ccc(O)cc1)C(=O)NCCCCCCCNCCCCN (centres undefined)", "Group label": "NO"}
{"Compound": "NCCCNCCCCCCCCNC(=O)C(Cc1ccc(O)cc1)NC(=O)CCc1ccccc1 (centres undefined)", "Group label": "NO"}
{"Compound": "CCCC(=O)NC(Cc1ccc(O)cc1)C(=O)NCCCCCCNCCCCCN (centres undefined)", "Group label": "NO"}
{"Compound": "CC(=O)NC(Cc1ccc(O)cc1)C(=O)NCCCCCCCCNCCCN (centres undefined)", "Group label": "NO"}
{"Compound": "CCCC(=O)NC(Cc1ccc(O)cc1)C(=O)NCCCCCNCCCCCCN (centres undefined)", "Group label": "YES"}
{"Compound": "CCCC(=O)NC(Cc1ccc(O)cc1)C(=O)NCCCNCCCCNCCCN (centres undefined)", "Group label": "NO"}
{"Compound": "CCCC(=O)NC(Cc1ccc(O)cc1)C(=O)NCCCCCCCCCNCCN (centres undefined)", "Group label": "NO"}
